We begin with a simple list: items and their reported hNE/PPE selectivity.
# Tested on: porcine pancreatic elastase (Sus scrofa, UniProt P00772)
# Construct: purchased Sigma, USA
# Sequence (P00772 27-266): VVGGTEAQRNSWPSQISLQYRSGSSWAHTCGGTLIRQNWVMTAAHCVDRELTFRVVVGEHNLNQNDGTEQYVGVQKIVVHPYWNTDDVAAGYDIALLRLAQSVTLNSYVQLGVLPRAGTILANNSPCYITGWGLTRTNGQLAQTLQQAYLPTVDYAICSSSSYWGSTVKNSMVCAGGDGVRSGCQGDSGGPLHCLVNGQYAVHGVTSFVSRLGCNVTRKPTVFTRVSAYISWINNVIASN
# Test: Inhibition of porcine pancreatic elastase (hydrolysis of MeOSuc-AAA-pNA)
# Assay type: biochemical
# Experimental parameters: ratio of PPE IC50 to hNE IC50
# Protocol: 2.3 Inhibition of Porcine Pancreatic Elastase The ability of the peptides of the invention to inhibit the hydrolysis activity of porcine pancreatic elastase (Sigma, USA) using the synthetic tripeptidic substrate MeOSuc-AAA-pNA (Bachem, Switzerland) was determined as follows: The above substrate (1 mM) and […] porcine pancreatic elastase (15 nM) were incubated at 37° C. with serial dilutions of the peptides (0.5% DMSO final) in assay buffer (50 mM Tris, pH8, 100 mM NaCl, 0.01% Tween20). […]
*1 amine or outer side, *2 acyl side, *3 side chain or, on linkers, in order; H or OH if unused. Where a SMILES comes first, the peptide text is derived from it. [ ]: non-standard residue; d: D form. X2 = C[C@@H](O)[C@@H](CCC(=O)[*:2])N[*:1]; X1 = NCCCC[C@@H](CCC(=O)[*:2])N[*:1]; Gly(octyl) = CCCCCCCC[C@H](N)C(=O)O; Dap = NC[C@H](N)C(=O)O
Quantity: hNE/PPE selectivity

{"Molecule": "CCCCCCCC[C@@H]1NC(=O)[C@@H]2CCCN2C(=O)[C@H]2CCCN2C(=O)CC[C@H]([C@@H](C)O)NC(=O)[C@H](CCCCN)NC(=O)[C@H](CCC(N)=O)NC(=O)[C@@H]2CCCN2C(=O)[C@@H]2CCCN2C(=O)[C@H]([C@@H](C)CC)NC(=O)[C@H](CO)NC(=O)[C@H](C)NC(=O)[C@H]([C@@H](C)O)NC(=O)[C@H](CCC(=O)O)NC1=O [Example 11] (cyclo([Gly(octyl)]ETASIPPQK[X2][dP]P))", "Quantity": "hNE/PPE selectivity", "Result": 4217}
{"Molecule": "CCCCCCCC[C@@H]1NC(=O)[C@@H]2CCCN2C(=O)[C@H]2CCCN2C(=O)[C@H]([C@@H](C)O)NC(=O)CC[C@H](CCCCN)NC(=O)[C@H](CCC(N)=O)NC(=O)[C@@H]2CCCN2C(=O)[C@@H]2CCCN2C(=O)[C@H]([C@@H](C)CC)NC(=O)[C@H](CO)NC(=O)[C@H](C)NC(=O)[C@H]([C@@H](C)O)NC(=O)[C@H](CCC(=O)O)NC1=O [Example 38] (cyclo([Gly(octyl)]ETASIPPQ[X1]T[dP]P))", "Quantity": "hNE/PPE selectivity", "Result": 535}
{"Molecule": "CCCCCCCC[C@@H]1NC(=O)[C@@H]2CCCN2C(=O)[C@H]2CCCN2C(=O)[C@H](CN)NC(=O)[C@H](CCCCN)NC(=O)[C@H](CCC(N)=O)NC(=O)[C@@H]2CCCN2C(=O)[C@@H]2CCCN2C(=O)[C@H]([C@@H](C)CC)NC(=O)[C@H](CO)NC(=O)[C@H](C)NC(=O)[C@H]([C@@H](C)O)NC(=O)[C@H](CCC(=O)O)NC1=O [Example 2] (cyclo([Gly(octyl)]ETASIPPQK[Dap][dP]P))", "Quantity": "hNE/PPE selectivity", "Result": 218}
